Catalogue of pIC50 readings, one per entry.
System: SW-620
experiment description: Cytotoxicity against human SW620 cells after 72 hrs by MTT assay
Format: functional, cell-based
condition: SW-620, 72 h
Keep in mind that pIC50 stands for -log10 of concentration in molar terms.

Examples with answers:
chemical structure	result type	assay result
COc1ccccc1/C=C1\CCC/C(=C\c2ccc(OC)c(OC)c2)C1=O	pIC50	5.11
COc1cc(/C=C2\CCC/C(=C\c3cccc(OC)c3OC)C2=O)cc(OC)c1	pIC50	5.42
COc1ccc(/C=C2\CCC/C(=C\c3cccc(Br)c3)C2=O)cc1OC	pIC50	5.38
COc1ccc(/C=C2\CCC/C(=C\c3cc(OC)c(OC)c(OC)c3)C2=O)cc1OC	pIC50	5.74
COc1ccc(/C=C2\CCC/C(=C\c3cc(Cl)cc(Cl)c3)C2=O)cc1OC	pIC50	5.60

Ask: // fetch pIC50 for COc1cccc(/C=C2\CCC/C(=C\c3ccccc3Br)C2=O)c1OC ; system: SW-620
Reply: 4.92

Ask: System SW-620. Read-out pIC50. Item COc1ccc(/C=C2\CCC/C(=C\c3ccc(OC)c(OC)c3)C2=O)cc1 . Report value.
Reply: 5.18

Ask: Supply pIC50 measured with SW-620 for COc1cccc(/C=C2\CCC/C(=C\c3ccc(Cl)cc3)C2=O)c1OC .
Reply: 4.95

Ask: Lab note: record pIC50 of COc1cccc(/C=C2\CCC/C(=C\c3cccc(Cl)c3Cl)C2=O)c1OC tested on SW-620.
Reply: 4.79

Ask: State pIC50 (SW-620) of COc1cccc(/C=C2\CCC/C(=C\c3cccc(Cl)c3)C2=O)c1OC .
Reply: 5.04

Ask: Send back SW-620 pIC50 of COc1ccc(/C=C2\CCC/C(=C\c3ccc(Cl)cc3Cl)C2=O)cc1OC only.
Reply: 4.99

Ask: State the measured pIC50 (SW-620) of COc1ccc(/C=C2\CCC/C(=C\c3ccc(OC)c(OC)c3)C2=O)cc1OC
Reply: 5.35

---

Reported IC50 is given for each of the following compounds.
experiment description: Cytotoxicity against human EJ28 cells after 72 hrs by MTT assay
Type: functional, cell-based
condition: EJ-28, 72 h
Reply numerically in µM, unit not repeated.

chemical structure	IC50 / µM
COc1ccc(/C=C2\CCC/C(=C\c3cccc(OC)c3OC)C2=O)cc1	16.8

Ask: Look up IC50 of COc1ccccc1/C=C1\CCC/C(=C\c2ccc(OC)c(OC)c2)C1=O and report it.
Reply: 8.1

Ask: Quick one: give measured IC50 for COc1ccc(/C=C2\CCC/C(=C\c3ccc(Cl)cc3Cl)C2=O)cc1OC
Reply: 12.4

Ask: Return the recorded IC50 value; entry: COc1cccc(/C=C2\CCC/C(=C\c3cccc(Cl)c3Cl)C2=O)c1OC
Reply: 18.1

Ask: # return recorded IC50 for input COc1cccc(/C=C2\CCC/C(=C\c3ccccc3Br)C2=O)c1OC
Reply: 10.8

---

System: SW-620
experiment description: Cytotoxicity against human SW620 cells after 72 hrs by MTT assay
Format: functional, cell-based
condition: SW-620, 72 h
result type: IC50 (µM)
Express your answer in µM, writing the number without its unit.

chemical structure	subject of test	assay result
COc1cccc(/C=C2\CCC/C(=C\c3ccc(OC)c(OC)c3)C2=O)c1	SW-620	3.7
COc1cccc(/C=C2\CCC/C(=C\c3cccc(O)c3)C2=O)c1OC	SW-620	6.4
COc1cccc(/C=C2\CCC/C(=C\c3ccc(Cl)cc3Cl)C2=O)c1OC	SW-620	16.3
COc1cccc(/C=C2\CCC/C(=C\c3ccccc3Cl)C2=O)c1OC	SW-620	10.3
COc1ccc(/C=C2\CCC/C(=C\c3cccc(Cl)c3Cl)C2=O)cc1OC	SW-620	10.8
COc1ccc(/C=C2\CCC/C(=C\c3ccc(O)c(Cl)c3)C2=O)cc1OC	SW-620	7.1
COc1cccc(/C=C2\CCC/C(=C\c3ccc(Br)cc3)C2=O)c1OC	SW-620	11.1

Here's the next entry for you.
Ask: For COc1cc(/C=C/C(=O)CC(=O)/C=C/c2ccc(O)c(OC)c2)ccc1O , write its IC50.
Reply: 14
